target: panel of 255 wild-type kinases (Homo sapiens, UniProt P43405); test: Kinase panel profiling at 1 µmol/L (MSA or IMAP), percentage inhibition; type: biochemical; settings: kinase SYK; 1 µmol/L single concentration; read-out: %-inhibition at 1 µmol/L, SYK
assay.endpoint: inhibition at 1 µM (%)
Answers are plain numbers, in %.

# example entries with known answers
{"structure.smiles.string": "C=CC(=O)N1CCC([C@@H]2CCNc3c(C(N)=O)c(-c4ccc(Oc5ccccc5)cc4)nn32)CC1", "inhibition at 1 µM (%)": -6.37}
{"structure.smiles.string": "C[C@H]1Oc2cc(cnc2N)-c2c(nn(C)c2C#N)CN(C)C(=O)c2ccc(F)cc21", "inhibition at 1 µM (%)": 16}
{"structure.smiles.string": "COC(=O)N[C@@H](C)CNc1nccc(-c2cn(C(C)C)nc2-c2cc(Cl)cc(NS(C)(=O)=O)c2F)n1", "inhibition at 1 µM (%)": -20}
{"structure.smiles.string": "Cn1cnc2c(F)c(Nc3ccc(Br)cc3F)c(C(=O)NOCCO)cc21", "inhibition at 1 µM (%)": -19}

Lab note: each molecule below needs its inhibition at 1 µM filled in.
1. CO[C@]1(C(=O)N[C@@H](C)c2ccc(-n3cc(F)cn3)nc2)CC[C@H](c2nc(C)cc(Nc3cc(C)[nH]n3)n2)CC1
2. Cn1cnc2c(F)c(Nc3ccc(Br)cc3Cl)c(C(=O)NOCCO)cc21
3. Cc1cc(Nc2ncnc3ccc(NC4=NC(C)(C)CO4)cc23)ccc1Oc1ccn2ncnc2c1
4. CN1CCN(c2ccc(C(=O)Nc3n[nH]c4ccc(Cc5cc(F)cc(F)c5)cc34)c(NC3CCOCC3)c2)CC1

[85, -12, -0.549, -5.27]

----------
target: panel of 255 wild-type kinases (Homo sapiens, UniProt Q9BYP7); test: Kinase panel profiling at 1 µmol/L (MSA or IMAP), percentage inhibition; assay type: biochemical; settings: kinase WNK3; 1 µmol/L single concentration; read-out: %-inhibition at 1 µmol/L, WNK3
Sequence (Q9BYP7 whole entry): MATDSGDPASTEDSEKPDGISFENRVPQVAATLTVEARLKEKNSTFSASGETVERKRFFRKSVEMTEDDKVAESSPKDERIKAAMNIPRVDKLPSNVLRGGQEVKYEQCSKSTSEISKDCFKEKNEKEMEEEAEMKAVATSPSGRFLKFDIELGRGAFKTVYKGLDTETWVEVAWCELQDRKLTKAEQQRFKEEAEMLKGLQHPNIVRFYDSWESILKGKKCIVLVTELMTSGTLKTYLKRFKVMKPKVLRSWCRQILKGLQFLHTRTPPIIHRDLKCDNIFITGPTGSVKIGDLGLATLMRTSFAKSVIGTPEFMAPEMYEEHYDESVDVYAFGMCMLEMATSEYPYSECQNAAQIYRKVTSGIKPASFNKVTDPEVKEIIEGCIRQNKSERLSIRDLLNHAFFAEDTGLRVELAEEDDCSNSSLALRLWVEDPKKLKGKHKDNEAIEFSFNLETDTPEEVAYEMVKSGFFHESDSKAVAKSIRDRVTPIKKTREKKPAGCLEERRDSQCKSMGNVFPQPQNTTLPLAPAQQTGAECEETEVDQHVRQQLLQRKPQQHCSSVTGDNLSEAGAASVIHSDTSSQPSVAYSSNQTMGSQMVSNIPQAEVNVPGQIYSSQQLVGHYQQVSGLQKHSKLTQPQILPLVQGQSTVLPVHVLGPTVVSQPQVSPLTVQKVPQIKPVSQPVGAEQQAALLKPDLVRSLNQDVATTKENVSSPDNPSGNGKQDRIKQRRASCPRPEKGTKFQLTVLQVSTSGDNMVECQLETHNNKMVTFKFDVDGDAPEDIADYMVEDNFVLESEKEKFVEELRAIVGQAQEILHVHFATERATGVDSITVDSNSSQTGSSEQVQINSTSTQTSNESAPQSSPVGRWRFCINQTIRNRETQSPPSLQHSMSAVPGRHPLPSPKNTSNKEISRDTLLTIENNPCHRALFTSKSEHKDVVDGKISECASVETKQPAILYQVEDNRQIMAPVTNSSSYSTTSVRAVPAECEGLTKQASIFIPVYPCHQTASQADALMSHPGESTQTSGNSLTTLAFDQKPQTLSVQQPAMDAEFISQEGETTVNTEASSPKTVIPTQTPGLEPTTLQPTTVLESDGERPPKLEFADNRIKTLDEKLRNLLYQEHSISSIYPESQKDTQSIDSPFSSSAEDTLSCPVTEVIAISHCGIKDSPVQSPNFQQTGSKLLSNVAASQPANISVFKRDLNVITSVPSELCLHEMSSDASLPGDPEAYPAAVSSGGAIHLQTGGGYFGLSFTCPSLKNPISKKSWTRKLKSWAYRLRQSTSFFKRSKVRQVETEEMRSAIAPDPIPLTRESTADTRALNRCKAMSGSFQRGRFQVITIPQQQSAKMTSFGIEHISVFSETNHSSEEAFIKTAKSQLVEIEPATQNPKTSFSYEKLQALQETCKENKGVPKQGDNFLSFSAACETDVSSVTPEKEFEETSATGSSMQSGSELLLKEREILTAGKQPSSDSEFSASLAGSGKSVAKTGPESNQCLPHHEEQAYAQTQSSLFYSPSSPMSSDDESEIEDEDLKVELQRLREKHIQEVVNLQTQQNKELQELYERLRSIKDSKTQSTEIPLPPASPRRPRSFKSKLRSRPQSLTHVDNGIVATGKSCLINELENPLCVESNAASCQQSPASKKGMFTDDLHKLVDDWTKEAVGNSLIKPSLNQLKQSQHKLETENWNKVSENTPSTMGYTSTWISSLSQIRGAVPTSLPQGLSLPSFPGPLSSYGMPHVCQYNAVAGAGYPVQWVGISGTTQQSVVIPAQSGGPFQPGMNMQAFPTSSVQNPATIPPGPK
assay.endpoint: inhibition at 1 µM (%)
Give bare numbers, in %.

Solved cases (3 shown):
{"molecule": "O=C(Nc1cnn2ccc(N3CCC[C@@H]3c3cc(F)ccc3F)nc12)N1CC[C@H](O)C1 [larotrectinib]", "assayed.target": "panel of 255 wild-type kinases (Homo sapiens, UniProt Q9BYP7)", "unit.name": "%", "inhibition at 1 µM": -0.6}
{"molecule": "Cc1nc(NC(=O)N2CCC[C@H]2C(N)=O)sc1-c1ccnc(C(C)(C)C(F)(F)F)c1 [alpelisib]", "assayed.target": "panel of 255 wild-type kinases (Homo sapiens, UniProt Q9BYP7)", "unit.name": "%", "inhibition at 1 µM": -3}
{"molecule": "C[C@H]1Oc2cc(cnc2N)-c2c(nn(C)c2C#N)CN(C)C(=O)c2ccc(F)cc21 [lorlatinib]", "assayed.target": "panel of 255 wild-type kinases (Homo sapiens, UniProt Q9BYP7)", "unit.name": "%", "inhibition at 1 µM": 6}

# ---- query molecule ----
Value of inhibition at 1 µM reported for the molecule CCN1CCN(c2ccc(Nc3cc(N(C)C(=O)Nc4c(Cl)c(OC)cc(OC)c4Cl)ncn3)cc2)CC1 [infigratinib] is 1.62

----------
Exercise: state measured inhibition at 1 µM for each of the compounds provided.
target: panel of 255 wild-type kinases (Homo sapiens); experiment: Kinase panel profiling at 1 µmol/L (MSA or IMAP), percentage inhibition; assay type: biochemical; conditions: kinase FER; 1 µmol/L single concentration; read-out: %-inhibition at 1 µmol/L, FER
One number for each entry, in %.

{"compound": "C[C@H](Nc1ncnc2nc[nH]c12)c1cc2cccc(Cl)c2c(=O)n1-c1ccccc1 [duvelisib]", "assayed.target": "panel of 255 wild-type kinases (Homo sapiens)", "unit.name": "%", "result": -1.81}
{"compound": "CO[C@]1(C(=O)N[C@@H](C)c2ccc(-n3cc(F)cn3)nc2)CC[C@H](c2nc(C)cc(Nc3cc(C)[nH]n3)n2)CC1 [pralsetinib]", "assayed.target": "panel of 255 wild-type kinases (Homo sapiens)", "unit.name": "%", "result": 75}
{"compound": "CCN1C(=O)N(c2c(F)c(OC)cc(OC)c2F)Cc2cnc3[nH]c(CN4CCOCC4)cc3c21 [pemigatinib]", "assayed.target": "panel of 255 wild-type kinases (Homo sapiens)", "unit.name": "%", "result": -3}

Now consider the entry below.
Query C=CC(=O)N1CCC([C@@H]2CCNc3c(C(N)=O)c(-c4ccc(Oc5ccccc5)cc4)nn32)CC1 [zanubrutinib] yields inhibition at 1 µM of 0.0146
